MEASURED TARGET: NS3 (Hepatitis C virus, UniProt A3EZJ3)
Sequence (A3EZJ3 whole entry): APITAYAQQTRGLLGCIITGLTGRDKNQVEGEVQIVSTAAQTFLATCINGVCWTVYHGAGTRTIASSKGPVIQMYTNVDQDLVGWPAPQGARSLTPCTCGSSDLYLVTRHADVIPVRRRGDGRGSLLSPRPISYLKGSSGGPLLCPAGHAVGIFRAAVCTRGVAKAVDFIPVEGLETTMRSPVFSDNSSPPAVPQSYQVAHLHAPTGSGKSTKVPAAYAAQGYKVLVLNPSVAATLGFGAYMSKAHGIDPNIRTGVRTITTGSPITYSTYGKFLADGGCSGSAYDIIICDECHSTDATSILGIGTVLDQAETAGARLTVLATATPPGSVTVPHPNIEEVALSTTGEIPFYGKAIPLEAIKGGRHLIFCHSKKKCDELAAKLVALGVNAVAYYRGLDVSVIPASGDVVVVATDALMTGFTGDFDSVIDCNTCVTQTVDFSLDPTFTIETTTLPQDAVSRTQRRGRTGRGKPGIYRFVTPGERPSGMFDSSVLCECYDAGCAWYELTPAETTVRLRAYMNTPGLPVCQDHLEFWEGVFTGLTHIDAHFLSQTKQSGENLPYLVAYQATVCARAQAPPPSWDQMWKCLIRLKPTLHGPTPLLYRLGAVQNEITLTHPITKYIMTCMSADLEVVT
ASSAY: Inhibitory concentration against Hepatitis C virus serine protease
Parameters: species or system Hepacivirus hominis
*1 amine or outer side, *2 acyl side, *3 side chain or, on linkers, in order; H or OH if unused. Where a SMILES comes first, the peptide text is derived from it. [ ]: non-standard residue; d: D form. The star is where a group is joined. NH(1S-phenylpropyl) = CC[C@H](N*)c1ccccc1; NH(1S-phenylethyl) = C[C@H](N*)c1ccccc1; Hyp = O=C(O)[C@@H]1C[C@@H](O)CN1; azaNva = CCCN(N[*:1])C(=O)[*:2]; X9 = CCCCCN(N[*:1])C(=O)[*:2]; Bn = c1ccc(C*)cc1
OBSERVABLE: IC50

Report IC50 for CCCCCN(NC(=O)[C@@H]1C[C@@H](OCc2ccccc2)CN1C(=O)[C@@H](NC(=O)[C@@H](NC(=O)[C@@H](CCC(=O)O)NC(=O)[C@H](CC(=O)O)NC(C)=O)[C@@H](C)CC)C(C)C)C(=O)N[C@@H](C)c1ccccc1 (Ac-D[dE]IV[Hyp](Bn)[X9]-{NH(1S-phenylethyl)}) please.
490 nM

Report IC50 for CCCN(NC(=O)[C@@H]1C[C@@H](OCc2ccccc2)CN1C(=O)[C@@H](NC(=O)[C@@H](NC(=O)[C@@H](CCC(=O)O)NC(=O)[C@H](CC(=O)O)NC(C)=O)[C@@H](C)CC)C(C)C)C(=O)N[C@@H](CC)c1ccccc1 (Ac-D[dE]IV[Hyp](Bn)[azaNva]-{NH(1S-phenylpropyl)}) please.
440 nM
